I'd be grateful if you could share measured melting point for these entries.
Provide the reading as a plain figure in °C.

Tell me the measured melting point of CC(=O)[C@H]1C[C@H](C(=O)OC(C)(C)C)N(C(=O)CNC(=O)Nc2cccc(C(=O)O)c2)[C@@H]1c1ccccc1 (racemic) , please.
145

// same read-out, input: NC(=O)c1cc(Cl)c(NC(=O)CCl)c(Cl)c1
260

###

I'd be grateful if you could share measured melting point for these entries.

Tell me the measured melting point of CC1(C)CCCN(CCNc2ccnc3cc(Cl)ccc23)C1 , please.
151 to 153 °C

// same read-out, input: Cc1cccc(C)c1NC(=O)N1CC(C)(C)NC1=S
242 to 243 °C

// same read-out, input: CN(CC(=O)O)CC(=O)Nc1cc(Cc2n[nH]c(=O)c3ccccc23)ccc1F
194 to 198 °C

// same read-out, input: CCOC(=O)COc1ccc2c(c1)C(=O)C(Br)CC2 (stereo unspecified)
91 to 93 °C

// same read-out, input: CCC(=O)NCC1CCC(Nc2nc3c(s2)CCOc2ccccc2-3)CC1 (stereo unspecified)
56 to 60 °C

// same read-out, input: Cc1cc2c(cc1C)N(C)Cc1cscc1N2
121 to 125 °C

###

measure: melting point

Tell me the measured melting point of CCCCc1nn(-c2cc(NC(=O)NCCC)ccc2Cl)c(=O)n1Cc1ccc(-c2ccccc2S(=O)(=O)NC(=O)c2ccccc2Cl)cc1 , please.
> 208 °C

// same read-out, input: CC(=O)Nc1ccc(CN2CCC(C(c3ccccc3)c3ccccc3)CC2)cc1
182 to 183 °C

// same read-out, input: Cc1nc2n(n1)C(N1CCN(C)CC1)=Nc1ccccc1C2
185 to 187 °C

// same read-out, input: Cc1ccc2[nH]c3c(C(=O)O)cccc3c2c1Cl
305 °C

// same read-out, input: O=C(O)c1ccc2c(c1)Cc1cccnc1O2
285 to 286 °C

###

I'd be grateful if you could share measured melting point for these entries.

Tell me the measured melting point of CON=C(C(C)=NN=Cc1ccccc1N(OC)C(=O)OC)c1ccc(F)cc1 , please.
88 to 90 °C

// same read-out, input: CC=CC1Nc2ccccc2-c2c([N+](=O)[O-])cnn21 (stereo not given)
115 to 117 °C

// same read-out, input: OC1(c2ccccn2)CCC2CCCC21 (stereo not given)
66 to 66.5 °C

// same read-out, input: CNC(=O)c1ccccc1Nc1nc(Nc2ccc3c(c2)C(C)(C)CCC(=O)N3)ncc1Cl
295 °C

// same read-out, input: Cc1noc(-c2cccc(CN3CCN(c4ccc(N)cc4)CC3)c2)n1
106 to 108 °C

###

I'd be grateful if you could share measured melting point for these entries.

Tell me the measured melting point of COc1cc(-c2ccc(NN)nn2)ccc1OC(F)F , please.
154 °C

// same read-out, input: CC(=O)Nc1cc(N2CCN(C(=O)OC(C)(C)C)CC2)ccc1S(=O)(=O)c1ccccc1
129 to 130 °C

// same read-out, input: CC(C)CCC1(CCc2ccccc2)CC(O)=CC(=O)O1 (centres undefined)
99 to 100 °C

// same read-out, input: C=CCOC1=NC(OCC)=NS(=O)(=O)N1C
56 to 60 °C

// same read-out, input: CC1=NN(c2cccc(S(N)(=O)=O)c2)C(=O)C1=c1[nH]c(=c2[nH]c(=C3C(=O)N(c4cccc(S(N)(=O)=O)c4)N=C3C)c3ccccc23)c2ccccc12
> 300 °C

// same read-out, input: O=C1Nc2cc(NC(=O)c3cccn(-c4ccc(F)cc4)c3=O)ccc2/C1=C/c1ccc[nH]1
> 300 °C

// same read-out, input: COc1cc(C=Cc2ccc(=O)[nH]n2)cc(OC)c1OC
194 to 196 °C

// same read-out, input: Fc1ccc2[nH]c(CN3C[C@@H]4C[C@H]3CN4c3ccccn3)cc2c1
211 to 214 °C

// same read-out, input: COc1ccc(Cn2nccc2-c2nn(-c3cccc(C(F)(F)F)c3)ccc2=O)cc1
159 to 161 °C

###

I'd be grateful if you could share measured melting point for these entries.

Tell me the measured melting point of CS(=O)(=O)c1cccc(NC(=O)c2cnn3c(C(F)(F)F)cc(-c4ccc(Cl)cc4)nc23)c1 , please.
305 °C

// same read-out, input: CC(C)(C)OC(=O)n1cnc2c([N+](=O)[O-])cccc21
249 °C

// same read-out, input: CC(C)(C)c1ccc(C(=O)c2ccc3n2Cc2ccccc2N(C(=O)COc2ccc(Cl)cc2)C3)cc1
171 °C

// same read-out, input: COc1ccc2c(c1)C(=O)CC1C2C(OC(=O)C(C)(C)C)CC2(C)C(OC(=O)C(C)(C)C)CCC12 (stereo not drawn)
183 to 184 °C

// same read-out, input: CN(C)c1ccc(-c2c(O)c3ccc(Cl)cc3[nH]c2=O)cc1
> 300 °C

// same read-out, input: O=C(O)COc1ccc(SCc2ccc(-c3ccc(C(F)(F)F)cc3)cc2)c2c1CCC2
158 to 159 °C

// same read-out, input: COCCNn1ncc2nc(C)ccc21
167 to 170 °C

// same read-out, input: COc1nc(N2CCN(C(=O)c3ccccc3C(F)(F)F)CC2)ccc1C(=O)NCCC1CC1
49 to 51 °C

// same read-out, input: CC(=O)Oc1cccc2c1C(=O)C(CN1CCC(O)(c3ccccc3)CC1)CC2 (stereo not drawn)
170 to 172 °C

// same read-out, input: CCc1nc2c(C)cc(C)nc2n1C1CCc2cc(-c3ccccc3-c3nnn[nH]3)ccc21 (stereo not drawn)
181 °C

// same read-out, input: CC(=O)Oc1cc(-n2c(=O)cc(C(F)(F)F)n(C)c2=O)c(F)cc1Cl
99 to 101 °C

// same read-out, input: CCCOCC(=O)c1ccc([N+](=O)[O-])cc1
49 to 50 °C

// same read-out, input: COc1ccc2nccc(CCC[C@@H]3CCN(CCC(F)c4ccccc4)C[C@@H]3C(=O)O)c2c1 (stereo partly drawn)
60 °C

// same read-out, input: O=C(C=Cc1c(Cl)cccc1Cl)c1c(Cl)cccc1Cl
124 to 125 °C

// same read-out, input: CC(C)CC1(C(CCN2C(=O)c3ccc(F)cc3C2=O)C(=O)NO)CCN(CCc2ccccc2)C1=O (stereo not drawn)
143 to 144 °C

// same read-out, input: CCOC(=O)C1=C(C)NC(C)=C(C(=O)OCCN)C1c1cccc([N+](=O)[O-])c1 (stereo not drawn)
137 to 139 °C

// same read-out, input: O=C1c2ccccc2CCn2cc(SC(F)(F)F)cc21
77 to 78 °C

// same read-out, input: COC(CCCNc1ccc(-c2nc(=O)c3ccccc3s2)cn1)OC
157 to 158 °C

// same read-out, input: O=C(NC(CO)CO)c1ccccc1-c1ccc(C(F)(F)F)cc1
141 to 143 °C

// same read-out, input: COc1ccc(C2=NN(CC(=O)c3ccc4ccccc4c3)C(=O)[C@H]3CCCC[C@@H]23)cc1OC (relative stereo)
89 to 90 °C

// same read-out, input: O=C(NCCNCC(O)COc1ccc(OCCOCC2CCC2)cc1)N1CCOCC1 (stereo not drawn)
91 to 93 °C

// same read-out, input: CS(=O)(=O)c1nnc(-c2ccco2)s1
120 °C

// same read-out, input: CC(C)c1cc(C(=O)C=CC(=O)N2CCN(C)CC2)ccc1OCC(=O)Nc1nc2ccccc2s1
114 to 115 °C

// same read-out, input: CN(C)CCC(c1ccc(C(=O)NN)cc1)c1ncc[nH]1 (stereo not drawn)
168 to 170 °C

// same read-out, input: CC1=C(CC2=NCCN2C)CCc2ccccc21
162 to 164 °C

// same read-out, input: OC(Cn1cncn1)(c1ccc(F)cc1F)C(F)n1cncn1 (stereo not drawn)
117 to 123 °C

// same read-out, input: Cc1ccc(S(=O)(=O)NCCc2cccc(OCC(=O)NCc3ccccc3)c2)cc1
118 to 120 °C

// same read-out, input: NS(=O)(=O)c1ccc(-n2ccc(C(F)F)n2)c(-c2ccc3c(c2)OCO3)c1
214 to 218 °C

// same read-out, input: c1ccc(COc2ccc(-c3nc(COc4cccc(CCCCn5ccnc5)c4)co3)cc2)cc1
87 to 88 °C

// same read-out, input: CC(C)C(=O)N1CCC(C2(c3cccc(-c4ccccc4)c3)N=C(N)N(C)C2=O)CC1 (stereo not drawn)
131 to 134 °C

// same read-out, input: CC1N=C(c2ccccc2Cl)c2cc([N+](=O)[O-])ccc2N(C)C1=O (single isomer, unassigned; (+))
156 to 158 °C

// same read-out, input: CC(C)(C)P(=O)(O)CCCN
253 to 255 °C

// same read-out, input: CON(O)C(=O)c1ccccc1[N+](=O)[O-]
104 °C

// same read-out, input: N#Cc1cc(Cl)ccc1-c1ccc(C(O)CCC(=O)O)cc1 (stereo not drawn)
168 to 169 °C

// same read-out, input: COC(=O)C(O)c1cc2c(cc1Cl)OCO2 (stereo not drawn)
66 to 68 °C

// same read-out, input: CC(C)c1ccc2oc(C(O)COc3ccc(C(=O)O)cc3)cc2c1 (stereo not drawn)
148 to 150 °C

// same read-out, input: Cn1nc(-c2ccccc2Cl)nc1-c1ccc(Oc2ccc(C(F)(F)F)cn2)cc1Cl
104 to 108 °C

// same read-out, input: Cc1ccccc1-c1cn(C)cc(-c2cccc(C(F)(F)F)c2)c1=O
144 to 147 °C
